System: Aspergillus niger
Assay: Inhibition of Aspergillus niger amyloglucosidase using p-nitrophenyl glycoside as substrate assessed as release of p-nitrophenol at 1000 uM measured by spectrometric assay relative to control
Property Name: inhibition (%)

Completed entries (count: 3):
| Smiles Entry | Experimental Value |
| --- | --- |
| CCCC[C@@]1(CO)NC[C@H](O)[C@@H](O)[C@@H]1O.Cl | 3.8 |
| CCCCCCCCC[C@]1(CO)NC[C@H](O)[C@@H](O)[C@@H]1O.Cl | 14.1 |
| CCCCCCC[C@]1(CO)NC[C@H](O)[C@@H](O)[C@@H]1O.Cl | 12.2 |

1: CCCCCCCCCC[C@@]1(CO)NC[C@H](O)[C@@H](O)[C@@H]1O.Cl
2: C[C@@]1(CO)NC[C@H](O)[C@@H](O)[C@@H]1O.Cl
3: CC[C@@]1(CO)NC[C@H](O)[C@@H](O)[C@@H]1O.Cl
Query: Provide the items ranked by increasing inhibition. A ranking is expressed here by listing the labels in the requested order.
Reply: 3, 2, 1
(3: 0%, 2: 2.7%, 1: 10.5%)
